# target.of.assay: FGF14:Nav1.6 C-tail complex (Homo sapiens, UniProt Q92915+Q9UQD0)
# Construct: polymerase chain reaction (PCR) amplification of the FGF14 open reading frame (nt 1–855); C-terminal fragment of Nav1.6 (amino acids 1763–1976) fused with CD4ΔC-tail (amino acids 1–395); expressed in transfected cells
# Sequence (Q92915 1-252 isoform Q92915-2): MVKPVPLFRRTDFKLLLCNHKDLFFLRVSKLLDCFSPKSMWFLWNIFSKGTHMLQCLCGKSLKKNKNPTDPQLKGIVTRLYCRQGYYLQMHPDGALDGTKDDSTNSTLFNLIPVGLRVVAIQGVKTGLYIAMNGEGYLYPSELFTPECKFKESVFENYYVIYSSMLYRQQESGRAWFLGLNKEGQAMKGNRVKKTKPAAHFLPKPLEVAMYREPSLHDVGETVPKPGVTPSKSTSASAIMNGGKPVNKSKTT
# Sequence (Q9UQD0 1763-1976 limits assumed): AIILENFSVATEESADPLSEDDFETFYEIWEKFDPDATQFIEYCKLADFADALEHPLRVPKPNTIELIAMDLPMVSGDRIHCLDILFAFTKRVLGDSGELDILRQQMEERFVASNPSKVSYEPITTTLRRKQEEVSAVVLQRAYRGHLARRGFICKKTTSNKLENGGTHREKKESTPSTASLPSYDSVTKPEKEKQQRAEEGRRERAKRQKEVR
# assay.details: Split-luciferase complementation assay (LCA) in Clone V double stable HEK293 cells
# Format: cell-based
# protocol.conditions: CC_NCI screening; LCA luminescence, biological replicate Set 2; normalized to on-plate 0.3% DMSO controls (n=16 per plate)
*1 amine or outer side, *2 acyl side, *3 side chain or, on linkers, in order; H or OH if unused. Where a SMILES comes first, the peptide text is derived from it. Bridges are numbered along the chain shown (N, C = ends). Roman numbers before positions name the chains, in order. [ ]: non-standard residue; d: D form. Actinocin(9to1) = Cc1c2oc3c(C)ccc(C(=O)[*:1])c3nc-2c(C(=O)[*:2])c(N)c1=O; NMeV = CN[C@H](C(=O)O)C(C)C; Sar = CNCC(=O)O

compound	target.of.assay	Split Luciferase Assay %Lum Set 2 (%)
CC(C)(C#N)c1cc(Cn2cncn2)cc(C(C)(C)C#N)c1	FGF14:Nav1.6 C-tail complex (Homo sapiens, UniProt Q92915+Q9UQD0)	99.87
CN(C)CC[C@H](CSc1ccccc1)Nc1ccc(S(=O)(=O)NC(=O)c2ccc(N3CCN(Cc4ccccc4-c4ccc(Cl)cc4)CC3)cc2)cc1[N+](=O)[O-]	FGF14:Nav1.6 C-tail complex (Homo sapiens, UniProt Q92915+Q9UQD0)	126.92
Cl.Cn1c(CCCC(=O)O)nc2cc(N(CCCl)CCCl)ccc21 [Bendamustine hydrochloride]	FGF14:Nav1.6 C-tail complex (Homo sapiens, UniProt Q92915+Q9UQD0)	127.96
CCN(CC)CCNC(=O)c1c(C)[nH]c(/C=C2\C(=O)Nc3ccc(F)cc32)c1C [Sunitinib]	FGF14:Nav1.6 C-tail complex (Homo sapiens, UniProt Q92915+Q9UQD0)	72.82
CS(=O)(=O)c1ccc(C(=O)Nc2ccc(Cl)c(-c3ccccn3)c2)c(Cl)c1 [Vismodegib, reference compound]	FGF14:Nav1.6 C-tail complex (Homo sapiens, UniProt Q92915+Q9UQD0)	147.72
CNC(=O)c1cc(Oc2ccc(NC(=O)Nc3ccc(Cl)c(C(F)(F)F)c3)cc2)ccn1 [Sorafenib, reference compound]	FGF14:Nav1.6 C-tail complex (Homo sapiens, UniProt Q92915+Q9UQD0)	15.60
CC(/C=C/C(=O)NO)=C\[C@@H](C)C(=O)c1ccc(N(C)C)cc1	FGF14:Nav1.6 C-tail complex (Homo sapiens, UniProt Q92915+Q9UQD0)	94.67
COC(=O)c1ccc2c(c1)NC(=O)/C2=C(\Nc1ccc(N(C)C(=O)CN2CCN(C)CC2)cc1)c1ccccc1	FGF14:Nav1.6 C-tail complex (Homo sapiens, UniProt Q92915+Q9UQD0)	123.80
OCCn1cc(-c2cnc3nnn(Cc4ccc5ncccc5c4)c3n2)cn1	FGF14:Nav1.6 C-tail complex (Homo sapiens, UniProt Q92915+Q9UQD0)	78.02
Nc1nc2nc[nH]c2c(=S)[nH]1	FGF14:Nav1.6 C-tail complex (Homo sapiens, UniProt Q92915+Q9UQD0)	110.27
Cc1nc(Nc2ncc(C(=O)Nc3c(C)cccc3Cl)s2)cc(N2CCN(CCO)CC2)n1 [DASATINIB]	FGF14:Nav1.6 C-tail complex (Homo sapiens, UniProt Q92915+Q9UQD0)	65.54
O=C1CCC(N2C(=O)c3ccccc3C2=O)C(=O)N1 (centres unmarked) [Thalidomide]	FGF14:Nav1.6 C-tail complex (Homo sapiens, UniProt Q92915+Q9UQD0)	108.19
NCCCNCCSP(=O)(O)O	FGF14:Nav1.6 C-tail complex (Homo sapiens, UniProt Q92915+Q9UQD0)	116.51
Cc1c2oc3c(C)ccc(C(=O)N[C@@H]4C(=O)N[C@H](C(C)C)C(=O)N5CCC[C@H]5C(=O)N(C)CC(=O)N(C)[C@@H](C(C)C)C(=O)O[C@@H]4C)c3nc-2c(C(=O)N[C@@H]2C(=O)N[C@H](C(C)C)C(=O)N3CCC[C@H]3C(=O)N(C)CC(=O)N(C)[C@@H](C(C)C)C(=O)O[C@@H]2C)c(N)c1=O [Dactinomycin] (I: T[dV]P[Sar][NMeV] / II: T[dV]P[Sar][NMeV]; ester I:1-I:C, II:1-II:C; linker I:N-II:N via Actinocin(9to1))	FGF14:Nav1.6 C-tail complex (Homo sapiens, UniProt Q92915+Q9UQD0)	65.54
